test system: CCRIS mutagenicity, Ames/micronucleus/aberration tests; test: CCRIS mutagenicity studies; conditions: Test System: AMES SALMONELLA TYPHIMURIUM; Strain/Indicator: TA100; Metabolic Activation: NONE; Method: STANDARD PLATE
Active and inactive are the calls of the source. How the calls were made is not given here.
Just give me one of these, please: active, inactive

INSERT INTO measurements (compound, group_label) VALUES
  ('C[C@@H]1O[C@H](C)[C@@H](O)[C@H](O)[C@@H]1OS(=O)(=O)O', 'inactive'),
  ('CN(C)c1ccc(NS(=O)(=O)c2cccc3cccnc23)cc1', 'inactive'),
  ('N#Cc1cccc(/C=C\c2ccc([N+](=O)[O-])cc2)c1', 'active'),
  ('CC(=O)C1(c2ccccc2)CCNCC1', 'inactive'),
  ('C/C=C\c1ccc(OC)cc1OC', 'inactive'),
  ('CC(/C=C(/C#N)c1ccc(Cl)c(Cl)c1)C(c1ccccc1)C(C#N)c1ccc(Cl)c(Cl)c1 (stereo not given)', 'active'),
  ('COc1ccc(C(=O)[C@@H]2O[C@@H]2c2ccccc2)cc1', 'inactive'),
  ('O=c1c2c(c3c(ccc4ccc[nH]c43)c1O)O2', 'active'),
  ('CC(C)(C)N.CC(C)(C)N.[Cl][Pt][Cl]', 'active');

# input Any idea what this test logged for `ClCCCCl` ?
# output inactive

----------
system: CCRIS mutagenicity, Ames/micronucleus/aberration tests; test: CCRIS mutagenicity studies; conditions: Test System: AMES SALMONELLA TYPHIMURIUM; Strain/Indicator: TA97; Metabolic Activation: RAT, LIVER, S-9, AROCLOR 1254 (10%); Method: PREINCUBATION
Activity calls are given as the source filed them. No rule for the calls is given here.
Just give me one of these, please: 1.0 for active, 0.0 for inactive

Please review the following examples before continuing.
INSERT INTO assay_data (compound, group_label) VALUES
  ('Cc1ccc(N)cc1O', 1.0),
  ('O=[N+]([O-])CCO', 0.0),
  ('N#CCc1ccccc1', 0.0);

# input Any idea what this test logged for `COc1ccc(C(=O)/C(Br)=C\C(=O)O)cc1` ?
# output 1.0

# input Any idea what this test logged for CCCCC(C=O)CC (configuration not stated) ?
# output 0.0

# input Any idea what this test logged for `Oc1cccc(Nc2ccccc2)c1` ?
# output 0.0

# input Any idea what this test logged for `CC(C)[N+](C)(CCOC(=O)C1c2ccccc2Oc2ccccc21)C(C)C` ?
# output 0.0

# input Any idea what this test logged for `O=[N+]([O-])c1cccc(O)c1` ?
# output 0.0

# input Any idea what this test logged for `CNc1ccccc1` ?
# output 0.0

# input Any idea what this test logged for `Oc1cccc2cccnc12` ?
# output 1.0

# input Any idea what this test logged for `Nc1ccc(Sc2ccc(N)cc2)cc1` ?
# output 1.0

# input Any idea what this test logged for `Cc1ccc(N)cc1` ?
# output 0.0

# input Any idea what this test logged for `Cc1cc(N=Nc2c(O)ccc3ccccc23)c(S(=O)(=O)O)cc1Cl` ?
# output 0.0

# input Any idea what this test logged for `O.O.O.O.O.O.O=[N+]([O-])[O-].O=[N+]([O-])[O-].O=[N+]([O-])[O-].[La+3]` ?
# output 0.0

# input Any idea what this test logged for CC(O)CCl (configuration not stated) ?
# output 0.0

# input Any idea what this test logged for C=CC(C)C#N (configuration not stated) ?
# output 0.0

# input Any idea what this test logged for `Cc1cccc(C#N)c1` ?
# output 0.0

# input Any idea what this test logged for `Cc1cccc(N)c1C` ?
# output 0.0

----------
system: CCRIS mutagenicity, Ames/micronucleus/aberration tests; experiment: CCRIS mutagenicity studies; conditions: Test System: AMES SALMONELLA TYPHIMURIUM; Strain/Indicator: TA98; Metabolic Activation: NONE; Method: STANDARD PLATE
Activity calls are given as the source filed them. No rule for the calls is given here.
Just give me one of these, please: active, inactive

INSERT INTO measurements (smiles_repr, measured_on, group_label) VALUES
  ('COc1c(O)c2c(c3cc(C(=O)N4CCc5c4c(O)c(OC)c4[nH]c(C(=O)N6C[C@H]7C[C@@]78C6=CC(=O)c6[nH]cc(C)c68)cc54)[nH]c13)CCN2C(N)=O', 'CCRIS mutagenicity, Ames/micronucleus/aberration tests', 'inactive'),
  ('NCCc1cnc[nH]1', 'CCRIS mutagenicity, Ames/micronucleus/aberration tests', 'inactive'),
  ('CCCC(c1cc(C(C)(C)C)c(O)cc1C)c1cc(C(C)(C)C)c(O)cc1C', 'CCRIS mutagenicity, Ames/micronucleus/aberration tests', 'inactive'),
  ('COC(C)(C)C', 'CCRIS mutagenicity, Ames/micronucleus/aberration tests', 'inactive'),
  ('CC1(C)[C@H](C(=O)OCc2cccc(Oc3ccccc3)c2)[C@@H]1C=C(Cl)Cl', 'CCRIS mutagenicity, Ames/micronucleus/aberration tests', 'inactive'),
  ('CNC(=O)CSP(=S)(OC)OC', 'CCRIS mutagenicity, Ames/micronucleus/aberration tests', 'inactive');

Shifting focus to the compound that follows.
# input Any idea what this test logged for `O=C(NCCCl)Nc1ncc([N+](=O)[O-])s1` ?
# output active

----------
system: CCRIS mutagenicity, Ames/micronucleus/aberration tests; assay: CCRIS mutagenicity studies; conditions: Test System: AMES SALMONELLA TYPHIMURIUM; Strain/Indicator: TA100; Metabolic Activation: HAMSTER, LIVER, S-9, AROCLOR 1254; Method: STANDARD PLATE
Active and inactive are the calls of the source. The rule behind the calls is not given here.
Just give me one of these, please: yes (1) = active, no (0) = inactive

Please review the following examples before continuing.
INSERT INTO measurements (smiles_repr, group_label) VALUES
  ('CCCCCCCCCCCCS', 'no (0)'),
  ('Cc1cc(S(=O)(=O)O)ccc1N', 'no (0)'),
  ('Clc1nc2ccccc2nc1Cl', 'no (0)'),
  ('CCOc1ccc(NC(C)=O)cc1', 'yes (1)'),
  ('COc1cc2c(cc1O)CCN[C@]21CS[C@@H]2c3c(OC(C)=O)c(C)c4c(c3[C@H](COC1=O)N1[C@@H]2[C@H]2c3c(cc(C)c(OC)c3O)C[C@@H]([C@@H]1O)N2C)OCO4', 'no (0)');

# input Any idea what this test logged for `CC1(C)COC1=O` ?
# output yes (1)

# input Any idea what this test logged for `CC(=O)C1(c2ccccc2)CCNCC1` ?
# output no (0)

# input Any idea what this test logged for `Cc1cc(S(=O)(=O)O)c(N)cc1Cl` ?
# output no (0)

# input Any idea what this test logged for `CCCCOC(=O)CC(CC(=O)OCCCC)(OC(C)=O)C(=O)OCCCC` ?
# output no (0)

# input Any idea what this test logged for `O=c1oc2cc(O)ccc2c2oc3cc(O)ccc3c12` ?
# output no (0)

# input Any idea what this test logged for `CC1(C)[C@@H]2CC[C@@]1(C)C(=O)C2=O` ?
# output no (0)

----------
system: CCRIS mutagenicity, Ames/micronucleus/aberration tests; experiment: CCRIS mutagenicity studies; details: Test System: AMES SALMONELLA TYPHIMURIUM; Strain/Indicator: TA100; Metabolic Activation: HAMSTER, LIVER, S-9, AROCLOR 1254 (10%); Method: PREINCUBATION
The source made the active and inactive calls. No rule for the calls is given here.
Just give me one of these, please: YES for active, NO for inactive

Please review the following examples before continuing.
INSERT INTO results (compound, group_label) VALUES
  ('CC(C)CN(CC(C)C)CC(C)C', 'NO'),
  ('B#B', 'NO'),
  ('C=CC(C)C#N (centres undefined)', 'NO'),
  ('C=C(C#N)C(=O)OC', 'YES'),
  ('O=Nc1ccc(O)cc1', 'NO');

# input Any idea what this test logged for `CCCCCC` ?
# output NO

# input Any idea what this test logged for `CC(C)CNCC(C)C` ?
# output NO

# input Any idea what this test logged for `F` ?
# output NO

# input Any idea what this test logged for `Cc1cccc(N)c1C` ?
# output YES

# input Any idea what this test logged for `O=Cc1ccccc1` ?
# output NO

# input Any idea what this test logged for CCCCC(CC)CNCC(CC)CCCC (centres undefined) ?
# output NO

# input Any idea what this test logged for `ClC(Br)Br` ?
# output NO

# input Any idea what this test logged for `CC(=O)Nc1ccccc1N` ?
# output YES

# input Any idea what this test logged for `Oc1c(Br)c(Br)c(Br)c(Br)c1Br` ?
# output NO

----------
system: CCRIS mutagenicity, Ames/micronucleus/aberration tests; assay: CCRIS mutagenicity studies; details: Test System: AMES SALMONELLA TYPHIMURIUM; Strain/Indicator: TA100; Metabolic Activation: NONE; Method: STANDARD PLATE
The source made the active and inactive calls. How the calls were made is not given here.
Just give me one of these, please: 1 = active, -1 = inactive

INSERT INTO results (compound, group_label) VALUES
  ('CN=C=O', -1),
  ('NCCc1c[nH]c2ccccc12', -1);

# input Any idea what this test logged for `O=c1c(Cl)c(Cl)cnn1S(=O)(=O)c1ccc(Cl)cc1` ?
# output -1

# input Any idea what this test logged for C1=CC2OC2C=CO1 (stereo not drawn) ?
# output -1

# input Any idea what this test logged for `Nc1ccccc1SCSc1ccccc1N` ?
# output -1
